Kindly state pIC50 for each of the entries shown.
study-system: murine RIP1 (Mus musculus, UniProt Q60855)
Construct: U937 and L929 cells were obtained from the American Type Culture Collection
Sequence (Q60855 whole entry): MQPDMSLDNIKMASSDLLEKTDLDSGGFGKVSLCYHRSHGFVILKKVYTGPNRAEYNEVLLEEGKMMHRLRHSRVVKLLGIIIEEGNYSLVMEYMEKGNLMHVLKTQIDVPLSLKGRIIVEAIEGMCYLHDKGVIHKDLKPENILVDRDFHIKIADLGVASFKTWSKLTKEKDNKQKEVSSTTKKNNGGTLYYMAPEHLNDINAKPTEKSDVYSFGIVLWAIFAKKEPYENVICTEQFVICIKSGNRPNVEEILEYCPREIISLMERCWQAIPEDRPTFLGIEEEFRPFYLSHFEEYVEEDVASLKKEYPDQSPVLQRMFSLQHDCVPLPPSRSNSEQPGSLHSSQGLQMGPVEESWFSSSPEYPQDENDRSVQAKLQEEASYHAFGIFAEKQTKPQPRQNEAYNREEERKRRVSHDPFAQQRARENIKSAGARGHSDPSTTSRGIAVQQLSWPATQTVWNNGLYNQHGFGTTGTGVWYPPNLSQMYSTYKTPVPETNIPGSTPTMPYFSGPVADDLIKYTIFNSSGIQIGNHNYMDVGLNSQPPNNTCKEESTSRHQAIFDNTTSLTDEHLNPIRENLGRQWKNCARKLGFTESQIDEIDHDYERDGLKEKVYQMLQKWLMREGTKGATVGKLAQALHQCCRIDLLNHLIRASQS
procedure-summary: L929 cell necroptosis assay (TNFa + zVAD, CellTiter-Glo)
Reminder that pIC50 is minus the log10 of a molar concentration.

Entry O=C(NC1CCc2ccc(N3CC4(CCOCC4)C3)cc2NC1=O)c1n[nH]c(Cc2ccccc2)n1 (racemic) , pIC50 reported as 4.51

Entry CN1C(=O)C(NC(=O)c2n[nH]c(Cc3ccccc3)n2)CCc2ccc(C#Cc3ccncc3)cc21 (racemic) , pIC50 reported as 8.00

Entry CN1C(=O)C(NC(=O)c2n[nH]c(Cc3ccccc3)n2)CCc2ccc(CN3CCn4ncnc4C3)cc21 (racemic) , pIC50 reported as 5.26

Entry CN1C(=O)C(NC(=O)c2cc(Oc3ccccc3)ccn2)CCc2ccc(C#CC(C)(C)O)cc21 (racemic) , pIC50 reported as 7.89

Entry `CN1C(=O)[C@@H](NC(=O)c2n[nH]c(Cc3ccccc3)n2)CCc2ccc(C#CC(C)(C)O)cc21` , pIC50 reported as 7.42
